Assay: chemical genetic growth profiling, strain panel (AID 1159580);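 note: tested at 20 µM; growth read once vehicle control cultures reached saturation at 30 °C; 1 = growth at the plate median or of vehicle wells; lower values mean less growth of the strain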
Details: S. cerevisiae deletion strains, growth OD, locus YJL164C, strain tpk1, active compounds read low
Out of some 5,500 compounds screened, about 2,000 (36%) were called active. Not shown: some 18% with an inconclusive outcome. The list shows a part of the results.
Rule: measured normalized growth below 1 gets class 1; anything equal to or greater than 1 gets class 0.

>>> label("COc1cc(NS(C)(=O)=O)ccc1Cc1c2ccccc2nc2ccccc12")
"class 1"
>>> label("CC[C@@H]1OC(=O)C[C@@H](O)[C@H](C)[C@@H](O[C@@H]2O[C@H](C)[C@@H](O)[C@H](N(C)C)[C@H]2O)[C@@H](CCN2C[C@H](C)C[C@H](C)C2)C[C@@H](C)C(=O)/C=C/C(C)=C\\[C@@H]1CO[C@@H]1O[C@H](C)[C@@H](O)[C@@H](OC)[C@H]1OC")
"class 0"

====

Form field: normalized growth (one value per entry).
Assay: chemical genetic growth profiling, strain panel (AID 1159580);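 note: tested at 20 µM; growth read once vehicle control cultures reached saturation at 30 °C; 1 = growth at the plate median or of vehicle wells; lower values mean less growth of the strain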
Conditions: S. cerevisiae deletion strains, growth OD, locus YDR388W, active compounds read low
Out of some 5,500 compounds screened, about 2,000 (36%) were called active. Inconclusive results (about 18%) are left out. This is one part of the list.
Reported endpoint: normalized growth

>>> recorded_number("C[C@@H]1CC[C@H]2C(C)(C)C3CC12CC[C@@]3(C)O (stereo partly specified)")
0.969
>>> recorded_number("CC12CCC3C(=CCc4cc(O)ccc43)C1CCC2=O (stereo unspecified)")
0.983
>>> recorded_number("COc1ccc(-c2cc(=O)c3c(OC)cc(OC)cc3o2)cc1")
0.99
>>> recorded_number("COc1ccc2c(c1)OCC(Cc1ccc(OC)c(O)c1)C2=O (stereo unspecified)")
0.967
>>> recorded_number("C[C@]12CCC3c4ccc(OC(=O)c5ccccc5)cc4CCC3C1CCC2=O (stereo partly specified)")
0.992
>>> recorded_number("Clc1ccc(COC(Cn2ccnc2)c2ccc(Cl)cc2Cl)c(Cl)c1 (stereo unspecified)")
0.056
>>> recorded_number("COC(=O)/C(C)=C\\CC12OC(C)(C)C3CC(C=C4C(=O)c5c(OC)c6c(c(CC=C(C)C)c5OC431)OC(C)(CCC=C(C)C)C=C6)C2=O (stereo unspecified)")
0.985
>>> recorded_number("Fc1ccc([C@@H]2CCNC[C@H]2COc2ccc3c(c2)OCO3)cc1")
1
>>> recorded_number("c1ccc2c(CC3=NCCN3)cccc2c1")
1.02
>>> recorded_number("N[C@@H](C(=O)O)[C@@H](O)[C@H](O)[C@H](O)CO")
1.01
>>> recorded_number("COc1ccc(CCC(=O)c2c(O)cc(O[C@@H]3O[C@H](CO)C(O)[C@H](O)C3O[C@@H]3O[C@@H](C)[C@H](O)[C@@H](O)[C@H]3O)cc2O)cc1O (stereo partly specified)")
0.995
>>> recorded_number("O=C(O)C(O)C(O)C(=O)O (stereo unspecified)")
0.99
>>> recorded_number("CC(C)c1nc(N(C)S(C)(=O)=O)nc(-c2ccc(F)cc2)c1/C=C/[C@@H](O)C[C@@H](O)CC(=O)O")
1.01
>>> recorded_number("NC(C(=O)O)C(O)C(=O)O (stereo unspecified)")
1.02
>>> recorded_number("COc1cc(OC)c2c(=O)cc(-c3ccccc3)oc2c1")
0.951
>>> recorded_number("NCCCC(=O)O")
1.02
>>> recorded_number("CC(=O)OCC(=O)[C@@]1(O)CCC2C3CCC4=CC(=O)C=CC4(C)C3[C@@H](O)C[C@@]21C (stereo partly specified)")
1.02
>>> recorded_number("COc1cc2c(cc1OC)C1(O)C(=O)c3ccc(O)c(C(=O)O)c3OC1CO2 (stereo unspecified)")
0.977
>>> recorded_number("CC(=O)O[C@H]1C[C@@H](OC(C)=O)C(C)(C)C2C[C@@H](OC(C)=O)[C@]3(C)C(CC[C@@]4(C)[C@H](c5ccoc5)OC(=O)[C@H]5O[C@]543)[C@]21C (stereo partly specified)")
0.999
>>> recorded_number("C[C@]12C=CC(=O)C=C1CCC1C2[C@@H](O)C[C@@]2(C)C1CC[C@]2(O)C(=O)CO (stereo partly specified)")
0.98
>>> recorded_number("CC(=O)OC1CC(O)C(C)(C)C2CC(=O)C3(C)C(CCC4(C)C(c5ccoc5)OC(=O)C5OC543)C12C (stereo unspecified)")
0.998
>>> recorded_number("COc1ccc2c(=O)c(OC)c(-c3ccccc3)oc2c1")
0.929
>>> recorded_number("CC(C)=CC1C(C(=O)OCc2cccc(Oc3ccccc3)c2)C1(C)C (stereo unspecified)")
0.983
>>> recorded_number("CN(C)CCC(c1ccccc1)c1ccccn1 (stereo unspecified)")
1
>>> recorded_number("CC(C)(S)[C@@H](N)C(=O)O")
0.991
>>> recorded_number("O=c1oc2ccccc2cc1O")
0.992
>>> recorded_number("CCCCCCCCCCCCCC(=O)OC1C(C)C2(O)C(C=C(CO)CC3(O)C(=O)C(C)=CC32)C2C(C)(C)C12OC(C)=O (stereo unspecified)")
0.99
>>> recorded_number("O=C(O)C1CCCNC1 (stereo unspecified)")
1.02
>>> recorded_number("CC(=O)O[C@@H]1CC2C(C)(C)C(=O)C3OC3[C@]2(C)C2CC[C@@]3(C)[C@H](c4ccoc4)OC(=O)C4OC43[C@@]21C (stereo partly specified)")
1
>>> recorded_number("Cc1nnc(NS(=O)(=O)c2ccc(N)cc2)s1")
0.993
>>> recorded_number("CC(C)/C(O)=C1/C(=O)O[C@@H](c2ccoc2)[C@]2(C)C(O)[C@@H](O)[C@@]34OC5(C)OC67CC(C)(C(O)[C@]6(O)[C@@H](O)[C@]3(O5)C12)[C@H](CC(=O)O)[C@]74C (stereo partly specified)")
1

====

Experiment: chemical genetic growth profiling, strain panel (AID 1159580);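 note: tested at 20 µM; growth read once vehicle control cultures reached saturation at 30 °C; 1 = growth at the plate median or of vehicle wells; lower values mean less growth of the strain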
Details: S. cerevisiae deletion strains, growth OD, locus YBR279W, strain paf1, active compounds read low
Among all 5,500 compounds or so, about 2,000 (36%) were called active. Not shown: some 18% with an inconclusive outcome. This is one part of the list.
Form field: normalized growth (one value per entry).
Reported endpoint: normalized growth

>>> recorded_number("CC(=O)Oc1ccc2c(c1)CCC1C2CC[C@]2(C)C(=O)CCC12 (some centres undefined)")
0.98
>>> recorded_number("NC(=O)NC1NC(=O)NC1=O (centres undefined)")
1.01
>>> recorded_number("O=C(O)CCC1NCC2CC1CN1CCCCC21 (centres undefined)")
0.977
>>> recorded_number("C[C@]12CCC3c4ccc(OC(=O)c5ccccc5)cc4CCC3C1CCC2=O (some centres undefined)")
0.988
>>> recorded_number("C=CCS(=O)C[C@H](N)C(=O)O (some centres undefined)")
0.999
>>> recorded_number("Cc1oncc1C(=O)Nc1ccc(C(F)(F)F)cc1")
1
>>> recorded_number("C=C[C@@]1(C)CC(=O)[C@@]2(O)[C@](C)(O1)[C@@H](OC(C)=O)[C@@H](O)C1C(C)(C)CC[C@H](O)[C@@]12C (some centres undefined)")
0.974
>>> recorded_number("NC(=O)CS(=O)C(c1ccccc1)c1ccccc1 (centres undefined)")
1.02
>>> recorded_number("CN[C@@H]1C(OC2[C@H](O[C@H]3[C@H](O)[C@@H](O)[C@H](N=C(N)N)[C@@H](O)[C@@H]3N=C(N)N)OC(C)[C@]2(O)CO)OC(CO)C(O)C1O (some centres undefined)")
1.01
>>> recorded_number("CC12CCCCC1(Br)[N+](=O)N2[O-] (centres undefined)")
0.972
>>> recorded_number("CC(=O)OCC(=O)[C@@]1(O)CCC2C3CCC4=CC(=O)C=CC4(C)C3[C@@H](O)C[C@@]21C (some centres undefined)")
0.993
>>> recorded_number("C[C@@H]1CC2C3CCC4=CC(=O)C=C[C@]4(C)[C@@]3(F)[C@@H](O)C[C@]2(C)[C@@]1(O)C(=O)CO (some centres undefined)")
1
>>> recorded_number("O=C(O)CCCCCCCC(=O)O")
0.991
>>> recorded_number("CCC(=O)OC1[C@@H]2CC3=C4CC(=O)O[C@@H](c5ccoc5)[C@]4(C)CCC3[C@@](C)(C2=O)[C@@H](CC(=O)OC)C1(C)C (some centres undefined)")
0.999

====

Assay: chemical genetic growth profiling, strain panel (AID 1159580);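 note: tested at 20 µM; growth read once vehicle control cultures reached saturation at 30 °C; 1 = growth at the plate median or of vehicle wells; lower values mean less growth of the strain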
Conditions: S. cerevisiae deletion strains, growth OD, locus YER111C, strain swi4, active compounds read low
In all, about 5,500 compounds went through this assay and about 2,000 (36%) were called active. About 18% were inconclusive and are not listed. This is one part of the list.
Form field: normalized growth (one value per entry).
Reported endpoint: normalized growth

>>> recorded_number("COC(=O)[C@@H]1OC(=O)C2OC23[C@@]1(C)CCC1[C@@]2(C)CCC(=O)C(C)(C)C2C[C@@H](OC(C)=O)[C@]13C (stereo partly drawn)")
1.01
>>> recorded_number("C1N2CN3CN1CN(C2)C3")
0.978
>>> recorded_number("NC(=O)CS(=O)C(c1ccccc1)c1ccccc1 (stereo not drawn)")
1.01
>>> recorded_number("Cc1ccc(C(=O)c2ccc(CC(=O)O)n2C)cc1")
1.01
>>> recorded_number("Cc1cc(CC(=O)O)n(C)c1C(=O)c1ccc(Cl)cc1")
1.02
>>> recorded_number("Cc1oncc1C(=O)Nc1ccc(C(F)(F)F)cc1")
1.02
>>> recorded_number("Nc1nc(F)nc2c1ncn2[C@@H]1O[C@H](COP(=O)(O)O)[C@@H](O)[C@@H]1O")
1
>>> recorded_number("Clc1ccc(C(c2ccccc2Cl)C(Cl)Cl)cc1 (stereo not drawn)")
0.986
